System: MS2 coat protein
ASSAY_NAME: apparent KD of MS2 coat protein; designed switch direction (-1 OFF switch, 1 ON switch): -1; higher = weaker reporter binding
PARTICULARS: input ligand: none
READOUT_NAME: apparent KD of MS2 coat protein (nM)
Give the number; nM is assumed, so skip it.

Query block: # apparent KD of MS2 coat protein lookup, item CCCGACAUGUCUUCGUAAUACAUGAGGAUCACCCAUGUCACGUAGGAUAUCCAGUCGGUAAGAGAGGAGAAGGAUGUAAGAAAU [Vedite] (Eterna round: R96, puzzle: Exclusion NG 3)
Result block: 15.5

Query block: Same for UGCGAGUAAGGAUAUUCGCGACCACCCACAAGGGCGGUCGAGAAGAAGGUACUUGAGGAUCACCCAAGUCCUAA [Inraindi] (Eterna round: R97, puzzle: Exclusion 4)
Result block: 20.2

Query block: Now consider GCACUGGCAGGAUAUACAUGAGGAUCACCCAUGUGAUCCCUUAAGUACAAAAGUACUAGUAGAAGGGCCUGUGC [Omei Ex3 Model Bachelor's Dilema v46] (Eterna round: R97, puzzle: Exclusion 3) and answer again.
Result block: 785

----------
System: MS2 coat protein
ASSAY_NAME: apparent KD of MS2 coat protein, switch OFF state (with FMN for OFF switches, without FMN for ON switches); designed switch direction (-1 OFF switch, 1 ON switch): -1; higher = weaker reporter binding
PARTICULARS: FMN input: 0 or 200 uM; Eterna round: R93 (includes R88 designs)
READOUT_NAME: apparent KD of MS2 coat protein
Kindly format the answer as number then unit.

Query block: Query: apparent KD of MS2 coat protein; subject: AAUAACCGAGGAUAUACAAAACUUGUGAUCUAGUGGAUUUUACAUGAGGAUCACCCAUGUAGAAGGCGGAAAAG [Veenquge]
Result block: 0.212 µM

Query block: Similarly, AACAUGUCAGGAUAUGUGGAAAGAAUAAAAGAAAUAAGAACACAGAAGGGACAUGAGGAUCACCCAUGUCAACA [May 31] ?
Result block: 0.0257 µM

Query block: Try AACUGACAUGAGGAUCACCCAUGUCAGGAUAUGCAUCUUAGGAAAAAAAAACUAAGAUGCAGAAGGGACAUGGA [Design 4: Super Stable 4] next.
Result block: 0.0462 µM

Query block: Now try AACAGGACAGGAUAUACAUGAGGAUCACCCAUGUGAGAAUUCAGUAGAUUGCCACAGAGUAGAAGGGUCCUGGA [Ruby 100] .
Result block: 0.102 µM

Query block: Now consider AAAAACCUAGGAUAUACAUGAGGAUCACCCAUGUAAAGAAACAACAAGGGAAACACACGUAGAAGGAGGAAGAA [JR_Exc003_Sub1204] and answer again.
Result block: 0.0748 µM

Query block: Okay, and AACAGUACAGGAUAUACAUGAGGAUCACCCAUGUAAAAAUAAAAGGGAAUCUCAAAAAGUAGAAGGGUACUGGA [Moding Maslow revisited (73) 13] ?
Result block: 0.0363 µM

Query block: Next entry: AAAAAGUAAGGAUAUCUGGAUAGGAAAAAGAAAACCUAUCCAGAGAAGGUACAUGAGGAUCACCCAUGUAAAAA [Opal 30]
Result block: 0.0141 µM

Query block: Now this one: AGUAUGCGAGGAUAUACAUGAGGAUCACCCAUGUGAGAGAUAUGAGUGAGAAAGACAAGUAGAAGGCGCGUACA [JL Lego Mod 26]
Result block: 0.0114 µM

Query block: Field entry: AAAACAAAAGGAUAUAAAAACAAAAGUCAGGAUAUAGGAAACUAGAAGGGACAUGAGGAUCACCCAUGUAAAAC [Meechl Ex4 R2 m3]
Result block: 0.0445 µM

Query block: Check AAAAAGUUAGGAUAUACAUGAGGAUCACCCAUGUGCACGUAUGGAGAAUAUGGUGGUAGUAGAAGGGACAAAAA [EX2 Malc#18] too.
Result block: 0.0666 µM

Query block: Check AAAAAACAUGAGGAUCACCCAUGUCAGGAUAUCGUUGAAAAAAAAAAAAAAAAAAAAGCGAGAAGGGACACGAA [exclusion1-cac3] too.
Result block: 0.0418 µM

Query block: Try this sequence next: GUCGUGUGAGGAUAUGGAAAGUAGAAGUGGCGGUCGAAAACCUAGAAGGCACAUGAGGAUCACCCAUGUAAGAG [JR_Exc004_Sub1708]
Result block: 0.0543 µM

Query block: Also need AUAAACUGAGGAUAUACAUGAGGAUCACCCAUGUAAAAAAAAAAAAGUUCCUCAAAAAGUAGAAGGCAGAAUAA [JR_Exc003_Sub013] , thanks.
Result block: 0.0194 µM

Query block: Now consider AAAUGACAUGAGGAUCACCCAUGUCAGGAUAUGACUUGAAAAAUAAAAUAAAAACAUGUCAGAAGGGACAUGAA [Design 47: Sub-opt E] and answer again.
Result block: 0.0176 µM

Query block: What about this sequence? AAUGGUGCAGGAUAUACAUGAGGAUCACCCAUGUACAUCAGACAUAUGGUCGAAACAUGUAGAAGGGCACCAAA [Ex 3May 55]
Result block: 0.336 µM

Query block: // same read-out, input: AAAAAGUGAGGAUAUACGUUGAAAAAAAAAAAAAAAAAGCGGUAGAAGGCACAUGAGGAUCACCCAUGUAAAAA [Ex4 Malc#4]
Result block: 0.0225 µM

Query block: Another: UCCUGACAUGAGGAUCACCCAUGUCAGGAUAUCUACAGAACCUCAUGUAAAAAACUGUAGAGAAGGGAUAUGGG [Design 98: Pseudoknot H]
Result block: 0.0175 µM

Query block: Please do the same for AAGGUACGAGGAUAUACAUAGAUACAGACACAUGUACAUGUACAUGAGGAUCACCCAUGUAGAAGGCGUAUAUG [Mat - Same state - Mayanna Mod - D109] as well.
Result block: 0.0739 µM

Query block: Now give it for AGCAGUACAGGAUAUACAUGAGGAUCACCCAUGUGAAAAAAAAGUGGCGUACCACAAAGUAGAAGGGUACUGCA [Mat - Exclusion 3 - JL mod - D32] too.
Result block: 0.108 µM

Query block: # iterate: AAGUACGAAGGAUAUACAUGGAUAUACAUUCAUGUGGACCUACAUGAGGAUCACCCAUGUAGAAGGUCGUAAUA [Mat - Same state - Mayanna Mod - D145]
Result block: 0.0128 µM

Query block: Again, but for AAAAAACAAGGAUAUACAAAAAUAAAAAGAAUAAAGUGAAAACAUGAGGAUCACCCAUGUAGAAGGUGUAAAAA [Default title]
Result block: 0.0448 µM

Query block: Repeat for the following sequence: AUAGGCCUAGGAUAUACAUGAGGAUCACCCAUGUUAAUAAUUCAAACAUGAUAAACGUGUAGAAGGAGGAAUAA [JR_Exc003_Sub302]
Result block: 0.0653 µM

Query block: What about this sequence? AAGAAUGAAGGAUAUACAUGAGGAUCACCCAUGUAAAAGAAAGAGGGAAAAGAGAAAAGUAGAAGGUCAAAGAA [Ptolemy XI Alexander II]
Result block: 0.0204 µM

Query block: Again, but for AAGGGACAUGAGGAUCACCCAUGUGAGGAUAUGACGUAAAGAAAGAAAGAAGAAAUCGUCAGAAGGCACACCAA [Mat - Exclusion 1 - Eli mod - D70]
Result block: 0.118 µM

Query block: How about this sequence: AGAAAACAUGAGGAUCACCCAUGUGAGGAUAUGCGAAAGAAAGAAAGAAAGAAAGAAAGCAGAAGGCACAAGAA [Ex 1 Tesla 2]
Result block: 0.0444 µM
